Each item that follows carries a reported %Inh.
Tested on: YSK4;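 further: KINOMEscan kinase panel screen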
Construct: gene MAP3K19
Conditions: concentration: 1 μM, replicates: in singlicate; n = 1
Provide the reading as a plain figure in %.

| COMPOUND | UNIT LABEL | NUMERIC READOUT |
| --- | --- | --- |
| CC(C)(C)c1ccc(C(=O)Nc2cn3cc(-c4cccnc4)ccc3n2)cc1 | % | 66 |
| COc1ccc2nc(-c3cccc(C)n3)nc(Nc3ccncc3)c2c1 [GSK204919] | % | 13 |
| COc1ccc(Nc2nccc(-c3cccc(NC(=O)c4cc5cc(F)ccc5[nH]4)c3)n2)cc1 [GSK1229782] | % | 79 |

%Inh lookup needed for COc1ccccc1CNC(=O)c1cc(C(=O)c2ccccc2C)c[nH]1 [GSK364507] , thanks.
28

%Inh lookup needed for Cc1cccc(-c2nc(Nc3cccc(C(N)=O)c3)c3ccccc3n2)n1 [GW876019] , thanks.
0

%Inh lookup needed for COc1cccc(NC(=O)NC2CCN(c3ccnc(Nc4ccc(F)cc4)n3)C2)c1 (stereo not drawn) [GSK1379721] , thanks.
3
